Tested on: rat pups challenged with cytoxan
Experiment: Cytoxan (CTX)-induced alopecia model in rat pups, topical polyamine effector
Type: in vivo, Sprague Dawley rat
Details: 10 mM topical; scale 0-4; vehicle 4.0
Form field: Avg Alopecia Score (one value per entry).
Keep it simple and answer with nothing but the number.

Observe how each entry below is paired with its result.
# compound, Avg Alopecia Score
records = [
    ("NCCCCNCCCN", 2.0),
    ("Cl.NCCC[C@](N)(C(=O)O)C(F)F (racemic) [DFMO, DL-Alpha Difluoromethylornithine HCl, reference compound]", 2.0),
    ("NCCCCN", 2.0),
]

Query compound follows.
Record for N=C(N)NCCCCN under target or system rat pups challenged with cytoxan: Avg Alopecia Score reported as 3.0
